test: Tmax in Tufted capuchin monkey at 10 mg/kg, po measured for 24 hrs by LC-MS/MS analysis; format: ADME, organism-based; conditions: sapajus apella, in vivo
Measurement name: Tmax (min)
// units = min; emit number, no label

Query block: Recorded Tmax of `N#Cc1cc(-c2ccc(C(=O)O)c(O)c2)c2oc(F)cc2c1` , please.
Result block: 48

---

assay: AUC (last) in Tufted capuchin monkey at 100 mg/kg, po measured for 24 hrs by LC-MS/MS analysis; type: ADME, organism-based; conditions: sapajus apella, in vivo
Measurement name: AUC(0-t) at 24 h (µg·h/mL)
Please respond with the number in µg·h/mL and leave the unit unwritten.

Query block: Returns the measured AUC(0-t) at 24 h for the input molecule. Input: `N#Cc1cc(-c2ccc(C(=O)O)c(O)c2)c2oc(F)cc2c1`
Result block: 302
